System: SN12C
Experiment: AUC of dose-response viability curve, drug alone (arbitrary (AUC of normalised viability)); higher = less growth inhibition
Details: treatment: drug alone; 5 days

[
  {
    "MOLECULE": "CS(=O)c1ccc(-c2nc(-c3ccc(F)cc3)c(-c3ccncc3)[nH]2)cc1 (centres undefined)",
    "AUC of dose-response viability curve": 3.43
  },
  {
    "MOLECULE": "COc1ccc(-c2cc3c(C)nc(N)nc3n([C@H]3CC[C@H](OCCO)CC3)c2=O)cn1",
    "AUC of dose-response viability curve": 1.98
  },
  {
    "MOLECULE": "COc1cc2c(Nc3ccc(Br)cc3F)ncnc2cc1OCC1CCN(C)CC1 [Vandetanib (Zactima)]",
    "AUC of dose-response viability curve": 3.2
  },
  {
    "MOLECULE": "CC[C@@H]1C(=O)N(C)c2cnc(Nc3ccc(C(=O)N[C@H]4CC[C@H](N5CCN(CC6CC6)CC5)CC4)cc3OC)nc2N1C(C)C",
    "AUC of dose-response viability curve": 1.71
  },
  {
    "MOLECULE": "FC(F)(F)c1ccc(/C=C/c2nc(COc3ccc(CCCCn4ccnn4)cc3)co2)cc1",
    "AUC of dose-response viability curve": 1.14
  },
  {
    "MOLECULE": "CCOc1cc2ncc(C#N)c(Nc3ccc(OCc4ccccn4)c(Cl)c3)c2cc1NC(=O)/C=C/CN(C)C",
    "AUC of dose-response viability curve": 2.44
  },
  {
    "MOLECULE": "O=c1cc(N2CCOCC2)oc2c(-c3ccccc3)cccc12",
    "AUC of dose-response viability curve": 3.36
  },
  {
    "MOLECULE": "CNC(=O)c1ccc(-c2cnc3ncc(Cc4ccc5ncccc5c4)n3n2)cc1F",
    "AUC of dose-response viability curve": 3.41
  },
  {
    "MOLECULE": "COc1cccc2cc(-c3nc([C@H]4CC[C@H](C(=O)O)CC4)n4ncnc(N)c34)[nH]c12",
    "AUC of dose-response viability curve": 2.77
  },
  {
    "MOLECULE": "O=C(Cc1ccc(-c2ccc(OCCN3CCOCC3)cc2)cn1)NCc1ccccc1",
    "AUC of dose-response viability curve": 1.72
  },
  {
    "MOLECULE": "Cc1ccc(C(=O)Nc2cccc(C(F)(F)F)c2)cc1Nc1nc(-c2cccnc2)nc2c1cnn2C",
    "AUC of dose-response viability curve": 3.15
  },
  {
    "MOLECULE": "CCC(=O)N1CCN(c2ccc(-n3c(=O)ccc4cnc5ccc(-c6cnc7ccccc7c6)cc5c43)cc2C(F)(F)F)CC1",
    "AUC of dose-response viability curve": 1.56
  },
  {
    "MOLECULE": "COc1cc2c(Oc3ccc(NC(=O)C4(C(=O)Nc5ccc(F)cc5)CC4)cc3F)ccnc2cc1OCCCN1CCOCC1",
    "AUC of dose-response viability curve": 2.34
  },
  {
    "MOLECULE": "COc1cc(Nc2ncc(F)c(Nc3ccc4c(n3)NC(=O)C(C)(C)O4)n2)cc(OC)c1OC.O=S(=O)(O)c1ccccc1",
    "AUC of dose-response viability curve": 3.11
  },
  {
    "MOLECULE": "C=CC(=O)Nc1cc2c(Nc3ccc(F)c(Cl)c3)ncnc2cc1OCCCN1CCOCC1",
    "AUC of dose-response viability curve": 2.52
  },
  {
    "MOLECULE": "CC(C)c1cnn2c(NCc3ccccc3)cc(NCCCCCCN)nc12.Cl [BS-181 HCl]",
    "AUC of dose-response viability curve": 3.22
  },
  {
    "MOLECULE": "N#C/C(=C\\c1ccc(O)c(O)c1)C(=O)NCc1ccccc1",
    "AUC of dose-response viability curve": 3.37
  },
  {
    "MOLECULE": "CCO.N#CC(=C(/N)Sc1ccccc1N)/C(C#N)=C(\\N)Sc1ccccc1N",
    "AUC of dose-response viability curve": 3.49
  },
  {
    "MOLECULE": "N#CCNC(=O)c1ccc(-c2ccnc(Nc3ccc(N4CCOCC4)cc3)n2)cc1",
    "AUC of dose-response viability curve": 3.06
  }
]
